# methodNotes: Pharmacokinetic evaluation of liquid bevirimat dosage forms, oral gavage, male Cynomolgus monkeys
# conditionSet: male, cynomolgus monkey, in vivo, po, 50 mg/monkey, Plasma Concentration, PG/glycerin/Vitamin ETPGS/ethanol formulation; 48 hr; AVG
parameterMeasured: concentration at 48 hr
Express the reported value numerically, then name its unit.

Entry C=C(C)[C@@H]1CC[C@]2(C(=O)O)CC[C@]3(C)[C@H](CC[C@@H]4[C@@]5(C)CC[C@H](OC(=O)CC(C)(C)C(=O)O)C(C)(C)[C@@H]5CC[C@]43C)[C@@H]12 has what concentration at 48 hr?
149 ng/mL

* * *

# methodNotes: Pharmacokinetic evaluation of liquid bevirimat dosage forms, oral gavage, male Cynomolgus monkeys
# conditionSet: male, cynomolgus monkey, in vivo, po, 50 mg/monkey, Plasma Concentration, PG/glycerin/Vitamin ETPGS/Tween80/Plasdone C15 formulation; 48 hr; AVG
parameterMeasured: concentration at 48 h (ng/mL)
Number in ng/mL, nothing else.

Entry C=C(C)[C@@H]1CC[C@]2(C(=O)O)CC[C@]3(C)[C@H](CC[C@@H]4[C@@]5(C)CC[C@H](OC(=O)CC(C)(C)C(=O)O)C(C)(C)[C@@H]5CC[C@]43C)[C@@H]12 has what concentration at 48 h?
336

* * *

# methodNotes: Pharmacokinetic evaluation of liquid bevirimat dosage forms, oral gavage, male Cynomolgus monkeys
# conditionSet: male, cynomolgus monkey, in vivo, po, 50 mg/monkey, Plasma Concentration, PG/glycerin/Vitamin ETPGS/Tween80/Plasdone C15 formulation; 4.0 hr; individual monkey
parameterMeasured: concentration at 4 h (µg/mL)
Number in µg/mL, nothing else.

Entry C=C(C)[C@@H]1CC[C@]2(C(=O)O)CC[C@]3(C)[C@H](CC[C@@H]4[C@@]5(C)CC[C@H](OC(=O)CC(C)(C)C(=O)O)C(C)(C)[C@@H]5CC[C@]43C)[C@@H]12 [Bevirimat] has what concentration at 4 h?
55.1

* * *

# methodNotes: Pharmacokinetic evaluation of liquid bevirimat dosage forms, oral gavage, male Cynomolgus monkeys
# conditionSet: male, cynomolgus monkey, in vivo, po, 50 mg, Cmax, 12.5 mg FAE/mL in 40% PG, 20% Glycerin, 0.25% Tween80, 0.2% Povidone K15, 50 mg FAE oral gavage; monkeys 186,116,120,AVG
parameterMeasured: Cmax (µg/mL)
Number in µg/mL, nothing else.

Entry C=C(C)[C@@H]1CC[C@]2(C(=O)O)CC[C@]3(C)[C@H](CC[C@@H]4[C@@]5(C)CC[C@H](OC(=O)CC(C)(C)C(=O)O)C(C)(C)[C@@H]5CC[C@]43C)[C@@H]12 has what Cmax?
42.8

* * *

# methodNotes: Pharmacokinetic evaluation of liquid bevirimat dosage forms, oral gavage, male Cynomolgus monkeys
# conditionSet: male, cynomolgus monkey, in vivo, po, 200 mg, t1/2, oral, 200 mg/monkey, PG/glycerin/Vitamin ETPGS/ethanol formulation; AVG
parameterMeasured: half-life (h)
Number in h, nothing else.

Entry C=C(C)[C@@H]1CC[C@]2(C(=O)O)CC[C@]3(C)[C@H](CC[C@@H]4[C@@]5(C)CC[C@H](OC(=O)CC(C)(C)C(=O)O)C(C)(C)[C@@H]5CC[C@]43C)[C@@H]12 has what half-life?
10.8

* * *

# methodNotes: Pharmacokinetic evaluation of liquid bevirimat dosage forms, oral gavage, male Cynomolgus monkeys
# conditionSet: male, cynomolgus monkey, in vivo, po, 50 mg/monkey, Plasma Concentration, PG/glycerin/Vitamin ETPGS/Tween80/Plasdone C15 formulation; 12 hr; individual monkey
parameterMeasured: concentration at 12 h

Entry C=C(C)[C@@H]1CC[C@]2(C(=O)O)CC[C@]3(C)[C@H](CC[C@@H]4[C@@]5(C)CC[C@H](OC(=O)CC(C)(C)C(=O)O)C(C)(C)[C@@H]5CC[C@]43C)[C@@H]12 has what concentration at 12 h?
8580 ng/mL
